Test system: HUVEC
protocol.summary: Sulforhodamine B proliferation assay
Type: cell-based, human
recorded.conditions: Homo sapiens, HUVEC, 48 h, read-out: IC50, HUVEC proliferation
measured.endpoint: IC50 (µM)

# smiles.representation, measured.endpoint, u, meas.value
records = [
    ("CCOc1nc2cccc(C(=O)O)c2n1Cc1ccc(-c2ccccc2-c2nnn[nH]2)cc1", "IC50", "µM", 32.4),
]

###

tested.system: APLNR (Homo sapiens)
Sequence (P35414 whole entry): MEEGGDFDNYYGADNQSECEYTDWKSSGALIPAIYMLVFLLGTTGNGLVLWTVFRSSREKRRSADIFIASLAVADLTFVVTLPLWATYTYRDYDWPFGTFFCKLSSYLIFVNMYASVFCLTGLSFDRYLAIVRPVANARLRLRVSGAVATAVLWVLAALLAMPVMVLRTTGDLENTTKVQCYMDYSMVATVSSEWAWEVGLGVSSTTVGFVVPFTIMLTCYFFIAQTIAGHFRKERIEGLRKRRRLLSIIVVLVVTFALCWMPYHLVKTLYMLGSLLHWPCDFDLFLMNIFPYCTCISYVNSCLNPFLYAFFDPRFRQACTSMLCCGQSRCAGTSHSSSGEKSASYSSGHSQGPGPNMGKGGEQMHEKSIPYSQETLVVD
protocol.summary: FLIPR Calcium 6 assay, inhibition of Apelin-13-induced calcium flux
recorded.conditions: FLIPR system; read-out: IC50, inhibition of Apelin-13-mediated calcium mobilization
measured.endpoint: IC50 (nM)

# molecule, meas.value
records = [
    ("CCOc1nc2cccc(C(=O)O)c2n1Cc1ccc(-c2ccccc2-c2nnn[nH]2)cc1 [Compound A-2, Candesartan]", 1210),
]

Values were extracted from paper PMC12763877.
